meta.source: ChEMBL document CHEMBL1156115

# MEASUREMENT NOTES: Half life in Wistar rat at 1 mg/kg, iv or 3 mg/kg, po
# Assay type: ADME, organism-based
# STATED CONDITIONS: in vivo
Would you kindly list half-life for each of these compounds?
API: value field is a number in h; no unit string.

Fill blank: measured half-life of the compound CC(C)(C)c1noc([C@@H]2CCCN2C(=O)C[C@H](N)Cc2cc(F)c(F)cc2F)n1 is ____. 1.6

Fill blank: measured half-life of the compound N[C@@H](CC(=O)N1CCC[C@H]1c1nc(-c2ncc(F)cc2F)no1)Cc1cc(F)c(F)cc1F is ____. 2.4

Fill blank: measured half-life of the compound CC(C)(F)c1nc([C@@H]2CCCN2C(=O)C[C@H](N)Cc2cc(F)c(F)cc2F)no1 is ____. 1

Fill blank: measured half-life of the compound N[C@@H](CC(=O)N1CCC[C@H]1c1noc(C2(C(F)(F)F)CC2)n1)Cc1cc(F)c(F)cc1F is ____. 2.3

====

Would you kindly list Vd for each of these compounds?
# MEASUREMENT NOTES: Apparent volume of distribution in Wistar rat at 1 mg/kg, iv or 3 mg/kg, po
# Type: ADME, organism-based
# STATED CONDITIONS: in vivo, read-out: Vz
API: value field is a number in L/kg; no unit string.

Fill blank: measured Vd of the compound N[C@@H](CC(=O)N1CCC[C@H]1c1noc(C2(C(F)(F)F)CC2)n1)Cc1cc(F)c(F)cc1F is ____. 17.5

Fill blank: measured Vd of the compound N[C@@H](CC(=O)N1CCC[C@H]1c1nc(-c2ncc(F)cc2F)no1)Cc1cc(F)c(F)cc1F is ____. 17.7

Fill blank: measured Vd of the compound CC(C)(C)c1noc([C@@H]2CCCN2C(=O)C[C@H](N)Cc2cc(F)c(F)cc2F)n1 is ____. 20.5

Fill blank: measured Vd of the compound CC(C)(F)c1nc([C@@H]2CCCN2C(=O)C[C@H](N)Cc2cc(F)c(F)cc2F)no1 is ____. 2.9

====

# MEASUREMENT NOTES: Clearance in Wistar rat at 1 mg/kg, iv or 3 mg/kg, po
# Format: ADME, organism-based
# STATED CONDITIONS: in vivo
Would you kindly list clearance for each of these molecules?
API: value field is a number in mL/min/kg; no unit string.

Fill blank: measured clearance of the molecule N[C@@H](CC(=O)N1CCC[C@H]1c1noc(C2(C(F)(F)F)CC2)n1)Cc1cc(F)c(F)cc1F is ____. 115

Fill blank: measured clearance of the molecule N[C@@H](CC(=O)N1CCC[C@H]1c1nc(-c2ncc(F)cc2F)no1)Cc1cc(F)c(F)cc1F is ____. 100

Fill blank: measured clearance of the molecule CC(C)(F)c1nc([C@@H]2CCCN2C(=O)C[C@H](N)Cc2cc(F)c(F)cc2F)no1 is ____. 31.7

Fill blank: measured clearance of the molecule CC(C)(C)c1noc([C@@H]2CCCN2C(=O)C[C@H](N)Cc2cc(F)c(F)cc2F)n1 is ____. 120

====

Would you kindly list half-life at 3 µM for each of these compounds?
# MEASUREMENT NOTES: Half life in rat liver microsomes at 3 uM
# Type: ADME, Microsome

Fill blank: measured half-life at 3 µM of the compound CS(=O)(=O)N1CC(c2noc([C@@H]3CCCN3C(=O)C[C@H](N)Cc3cc(F)c(F)cc3F)n2)C1 is ____. > 2 h

Fill blank: measured half-life at 3 µM of the compound CC(C)(C)c1noc([C@@H]2CCCN2C(=O)C[C@H](N)Cc2cc(F)c(F)cc2F)n1 is ____. 0.133 h

Fill blank: measured half-life at 3 µM of the compound CC(C)(F)c1nc([C@@H]2CCCN2C(=O)C[C@H](N)Cc2cc(F)c(F)cc2F)no1 is ____. 1.7 h

Fill blank: measured half-life at 3 µM of the compound N[C@@H](CC(=O)N1CCC[C@H]1c1nc(C2CC2)no1)Cc1cc(F)c(F)cc1F is ____. 1.18 h

Fill blank: measured half-life at 3 µM of the compound N[C@@H](CC(=O)N1CCC[C@H]1c1nc(-c2ncc(F)cc2F)no1)Cc1cc(F)c(F)cc1F is ____. > 2 h

Fill blank: measured half-life at 3 µM of the compound N[C@@H](CC(=O)N1CCC[C@H]1c1noc(C2(C(F)(F)F)CC2)n1)Cc1cc(F)c(F)cc1F is ____. 1 h
